Can you tell me melting point for the items I'm about to list?

Query string: Which melting point reading was recorded for the compound O=C(c1cccnc1)N1CCC(c2cccc(Cl)c2)=N1 ?
Result string: 124 to 126 °C

Query string: Another compound to check: Cc1ccc(C2=NN(C(=O)c3cccnc3)CC2)cc1
Result string: 100 to 102 °C

Query string: Also COc1ccccc1C1=NN(C(=O)c2cccnc2)CC1 ?
Result string: 130 to 132 °C

Query string: Ok, now CCOc1ccc(C2=NN(C(=O)c3cccnc3)CC2)cc1
Result string: 124 to 125 °C

Query string: # iterate: CCOc1ccccc1C1=NN(C(=O)c2cccnc2)CC1
Result string: 155 to 157 °C

* * *

Target desc: rat GLT-1 (Rattus norvegicus, UniProt P31596)
Construct: expressed in transfected cells; host or cells: COS-7 cells
Sequence (P31596 whole entry): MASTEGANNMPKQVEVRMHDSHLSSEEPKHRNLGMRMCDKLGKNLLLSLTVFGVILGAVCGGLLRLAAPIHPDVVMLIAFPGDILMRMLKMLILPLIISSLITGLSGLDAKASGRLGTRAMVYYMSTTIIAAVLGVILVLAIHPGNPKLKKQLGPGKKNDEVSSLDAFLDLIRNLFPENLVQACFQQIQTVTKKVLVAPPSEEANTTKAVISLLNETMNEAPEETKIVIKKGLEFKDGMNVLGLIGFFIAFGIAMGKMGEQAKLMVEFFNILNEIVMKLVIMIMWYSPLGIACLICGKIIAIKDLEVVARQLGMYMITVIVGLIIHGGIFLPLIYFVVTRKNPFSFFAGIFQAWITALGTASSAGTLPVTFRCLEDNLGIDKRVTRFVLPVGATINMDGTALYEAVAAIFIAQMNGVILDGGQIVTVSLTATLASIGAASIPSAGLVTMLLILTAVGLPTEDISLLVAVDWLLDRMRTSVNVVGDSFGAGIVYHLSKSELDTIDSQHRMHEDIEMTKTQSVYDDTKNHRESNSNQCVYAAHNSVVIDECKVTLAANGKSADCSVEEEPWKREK
Method summary: Activating action for glia type glutamic acid transporter (GLT-1): [3H]-glutamate intake in COS-7 cells
Format: cell-based
Measurement setup: test compound 100 μM, treated from 1 hour before [3H]-glutamate (2 μM), 3 min uptake; COS-7 cells expressing rat GLT-1; percentage relative to solvent-treated group
Give Glutamic acid intake (%) for every item shown.
Answer with a number only, understood to be in %.

Query string: What measured Glutamic acid intake (%) is associated with O=C(c1cccnc1)N1CCC(c2ccc(F)cc2)=N1 on rat GLT-1 (Rattus norvegicus, UniProt P31596)?
Result string: 143

Query string: Let us now turn to COc1ccc(C2=NN(C(=O)c3cccnc3)CC2)c(OC)c1
Result string: 126

Query string: Record: CS(=O)(=O)O.O=C(c1cccnc1)N1CCC(c2ccccc2)=N1
Result string: 145

Query string: Would you kindly repeat that for Cc1cccc(C2=NN(C(=O)c3cccnc3)CC2)c1 ?
Result string: 134

Query string: Could you do the same for Cc1ccccc1C1=NN(C(=O)c2cccnc2)CC1 , please?
Result string: 129

Query string: Another compound: O=C(c1cccnc1)N1CCC(c2ccccc2Cl)=N1
Result string: 134

Query string: Param item: COc1ccc(C2=NN(C(=O)c3cccnc3)CC2)cc1
Result string: 129

Query string: Another compound: O=C(c1cccnc1)N1CCC(c2ccc(Br)cc2)=N1
Result string: 138

Query string: Further, for O=C(c1cccnc1)N1CCC(c2ccccc2F)=N1 ?
Result string: 134

Query string: Would you mind doing COc1ccccc1C1=NN(C(=O)c2cccnc2)CC1 as well?
Result string: 124

Query string: Also O=C(c1cccnc1)N1CCC(c2ccccc2C(F)(F)F)=N1 , if possible.
Result string: 128

Query string: Try this compound next: CCOc1ccc(C2=NN(C(=O)c3cccnc3)CC2)cc1
Result string: 129

Query string: Now try O=C(c1cccnc1)N1CCC(c2cccc(Cl)c2)=N1 .
Result string: 140

Query string: Entry to check: O=C(c1cccnc1)N1CCC(c2ccc([N+](=O)[O-])cc2)=N1
Result string: 130

Query string: Same thing, different compound: O=C(c1cccnc1)N1CCCC(c2ccccc2)=N1
Result string: 136

Query string: Next record, please: O=C(c1cnccn1)N1CC2CS(=O)(=O)c3ccccc3C2=N1 (stereo not shown)
Result string: 125

Query string: Then O=C(c1cccnc1)N1CC2COc3cc(Cl)ccc3C2=N1 (stereo not shown) ?
Result string: 125

Query string: Please answer likewise for Cc1ccc(C2=NN(C(=O)c3cccnc3)CC2)cc1
Result string: 131

Query string: // query: COc1ccccc1C1=NN(C(=O)c2cccnc2)CC1C (stereo not shown)
Result string: 134

Query string: Another compound: O=C(c1cccnc1)N1CCC(c2ccc(Cl)cc2)=N1
Result string: 135

Query string: Another: O=C(c1cnccn1)N1CCCC(c2ccccc2)=N1
Result string: 126

Query string: What do we get for O=C(c1cccnc1)N1CC2COc3ccccc3C2=N1 (stereo not shown) ?
Result string: 131

These entries and their values trace back to patent US6831083B2.
